Measured values drawn from PubChem BioAssay AID720650 for this set.

Test: Biochemical counterscreen for C difficile toxins, absence of UDPG, inhibitor dose response (AID 720650)
Settings: series mostly up to 19.5 µM
Calls of active or inactive are those of the source. No rule for the calls is given here.
READOUT: AC50

Some molecules with recorded AC50:
C=CCn1c(SCC(=O)N2CC(=O)Nc3ccccc32)nc2scc(-c3ccccc3)c2c1=O :: inactive
OCC[C@H]1C[C@H](O)[C@@H](O)[C@@]2(Cc3ccccc3CO2)O1 :: inactive
CCCNC(=O)C[C@H]1CC[C@@H]2[C@@H](COc3ccc(NC(=O)c4ccc5c(c4)OCO5)cc3C(=O)N2C)O1 :: > 39 µM (inactive)
COc1cc(/C=C/C(=O)OCC(=O)NCc2ccco2)ccc1O :: inactive

For reference, reported AC50 for CNC(=O)N(O)C1N(/N=C/c2ccc(SC)cc2)C(=S)SC1(C)C (stereo not given) stands at > 39 µM (inactive)

Consider COc1ccc2nccc(/C=C/c3ccnc4ccc(OC)cc34)c2c1 . Its measured AC50 is inactive

====

Assay: Biochemical counterscreen for C difficile toxins, absence of UDPG, inhibitor dose response (AID 720650)
Conditions: series mostly up to 19.5 µM
Calls of active or inactive are those of the source. No rule for the calls is given here.
Choose the fitting class; nothing outside yes (active), no (inactive) is accepted.

Solved cases below.
O=C(C[C@H]1C[C@H]2c3cc(NC(=O)c4ccc5c(c4)OCO5)ccc3O[C@H]2[C@@H](CO)O1)NCc1cccc(F)c1 :: no
O=C(Nc1ccc(N2CCOCC2)c(Cl)c1)c1ccc(F)cc1 :: no
COc1ccc(NS(=O)CCCc2ccccc2)cc1 (stereo not given) :: no
C[C@H](CO)N1C[C@H](C)[C@@H](CN(C)CC2CCCCC2)Oc2ccc(NC(=O)CCN3CCOCC3)cc2C1=O :: no
CCN1CCN(S(=O)(=O)c2ccc3[nH]c(=O)oc3c2)CC1 :: no

Request: Please share the test call associated with COc1ccc(Br)cc1C(=O)Nc1ccc(O)cc1 .
Response: yes

Request: State the result this test recorded for Cc1nc2ccccc2nc1OCC(=O)Nc1ccc(F)cc1 .
Response: no

Request: So what was the verdict on COc1cc(/C=N/NC(=O)c2cccc([N+](=O)[O-])c2)ccc1O in this test?
Response: no

Request: Give the logged outcome of this assay for the following compound: Cc1cnc([N+](=O)[O-])n1CCOC(=O)NC(=O)c1ccc(F)cc1
Response: no

Request: # outcome recorded in this test, key = O=C1/C(=C/c2cccnc2)SC(=NCc2ccccc2)N1Cc1ccccc1
Response: no

====

Experiment: Biochemical counterscreen for C difficile toxins, absence of UDPG, inhibitor dose response (AID 720650)
Settings: series mostly up to 19.5 µM
The source made the active and inactive calls. The rule behind the calls is not given here.
Response enum: active, inactive

Sample answers from the record:
Cc1cccc2sc(NNC(=O)C3COc4ccccc4O3)nc12 (stereo not drawn) :: active
C[C@H](NC(=O)c1cc2c(cn1)[nH]c1ccccc12)C(=O)O :: inactive
O=C(NNC(=O)c1cccc2ccccc12)c1cccc(F)c1 :: inactive

Request: GET /call?item= COc1ccccc1-n1c(SCC(=O)O)nc2c(sc(=S)n2-c2ccc(Cl)c(C)c2)c1=O returns the recorded outcome of this test.
Response: inactive

Request: // param item: Oc1ccc(/C=N/Nc2ncnc3nc[nH]c23)cc1 ; yields the recorded call
Response: inactive

Request: Please let me know the test result on file for COc1ccc(C(NC(C)=O)c2cc(Cl)c3cccnc3c2O)cc1 (stereo not drawn) .
Response: inactive

Request: State the result this test recorded for COc1ccc(C(=O)Nc2ccc3c(c2)C(=O)N(C)[C@@H]2CC[C@H](CC(=O)NCC4CC4)O[C@@H]2CO3)cc1 .
Response: inactive
